system: MCF7 breast; assay: NCI tumour cell line growth inhibition, 48 h
# TGI listing for each entry below
MEASUREMENT_TYPE: TGI

* COC(=O)C1=C(C(=O)OC)SC(=C2S[C@@H]3[C@@H]4C[C@H]([C@@H]3S2)[C@H]2C(=O)OC(=O)[C@@H]42)S1 | > 100 µM
* CCOc1ccc(N=NS(=O)(=O)O)cc1 | > 100 µM
* O=C1c2ccccc2CC12Cc1ccccc1C2 | > 100 µM
* CC(=O)ON1C(=O)c2cccc3cccc(c23)C1=O | > 100 µM
* Cc1cc2nc3cc(C)c(N)cc3[n+](-c3ccccc3)c2cc1N | > 100 µM
* Cc1cc(C(=O)O)c(C)n1-c1cccc(C(=O)O)c1 | > 100 µM
* O=C(CN1CCOCC1)c1ccc2c(c1)oc(=O)n2CCN1CCCC1 | > 100 µM
* C=C(CC(=O)O)C(=O)O (tested in a mixture with another compound) | > 50 µg/mL
* O=C(O)CCc1c2ccc(=O)c(O)c-2oc2c(O)c(O)ccc12 | 29.3 µM
* CC(C)(C)OC(=O)C1=C2C=C(O)C=CC2(C)N(Cc2ccccc2)C1=N (stereo unspecified) | 9.99 µM
* CCCCCCCCCCCCCCCC(=O)OCC1OC(OC)C2NP(=O)(N(CCCl)CCCl)OC1C2O (stereo unspecified) | 20.5 µM
* NC(Cc1ccc(S(=O)(=O)O)cc1)C(=O)NC(Cc1ccc(S(=O)(=O)O)cc1)C(=O)NC(Cc1ccc(S(=O)(=O)O)cc1)C(=O)O (stereo unspecified) | > 100 µM
* C(=N\OCCc1ccccc1)/c1cccnc1 | > 100 µM
* C/C(=N\N=C(\[Se])N(C)C)c1ccccn1 | 8.15 µM
* Fc1cccc(Cl)c1C1SCc2nc3cc4ccccc4cc3n21 (stereo unspecified) | > 100 µM
* CCCCN(CCCC)CCC(O)c1cc2c(Cl)cc(Cl)cc2c2cc(C(F)(F)F)ccc12 (stereo unspecified) | 24.9 µM
* O=C(Cc1nc2ncccc2[nH]c1=O)c1c[nH]c2ccccc12 | 32.3 µM
* COC(=O)c1c[nH]c2c1-c1cc(C(=O)OCc3ccccc3)n(S(=O)(=O)c3ccc(C)cc3)c1C(=O)C2=O | 0.379 µM
* C=C1C(=O)OC2CC(=C)C3CC=C(C)C3CC12 (stereo unspecified) | 55.3 µM
* O=c1c(Br)cc2c(-c3ccccc3)c3cc(Br)c(O)c(Br)c3oc-2c1Br | > 100 µM
* SCc1ccc(CS)s1 | > 100 µM
* C/C(=N\NC(=S)N1CCCCCCCCCCCC1)c1ccccn1 | 0.674 µM
* CC(/C=C/c1ccccc1)=N\NC(N)=S | > 100 µM
* Oc1ccc(CCNCc2cc3c(cc2Br)OCO3)cc1 | > 100 µM
* CC(C)(C)c1cc(OCc2nnc3sc(=S)[nH]n23)c(Cl)cc1OCc1nnc2sc(=S)[nH]n12 | 31.6 µM
* Cc1ccc(C2=C(c3ccc(C)cc3)C3(c4ccc(C)cc4)C4C(=O)c5ccccc5C(=O)C4C2(c2ccc(C)cc2)S3=O)cc1 (stereo unspecified) | > 100 µM
* N=C(N)c1ccc(NCCOCCNc2ccc(C(=N)N)cc2)cc1 | > 100 µM
* CCOC(=O)CCC(NC(=O)OCc1ccccc1)C(=O)NC(CCC(=O)OCC)C(=O)NNC(=O)OC(C)(C)C (stereo unspecified) | > 100 µM
* N#Cc1nc(-c2ccccn2)oc1N | > 100 µM
* CCN(CC)CCN(Cc1ccc(F)cc1)c1ccc(CO)c(Cl)c1 | 85.5 µM
* CC(C)CC(Nc1c(O)ccc2ccccc12)C(=O)O (stereo unspecified) | > 100 µM
* CN(C)S(=O)(=O)n1cnc(CO)c1 | > 100 µM
* CCC(=O)Nc1ccccc1C#C/C=C\C#Cc1ccccc1C(F)(F)F | > 36.1 µM
* Oc1cccc2cc(Br)cnc12 | > 100 µM
* COC(=O)[C@@H](Cc1ccccc1)N1O[C@]12CCCC[C@@H]2NC(=O)OC(C)(C)C (stereo partly specified) | 28.5 µM
* CN1C=Cc2nccc3cc4c(c1c23)OCO4 | > 23.6 µM
